# Test system: DeltatarO mutant
# method: S. aureus survival, RN4220 and DeltatarO strains – OD600, teichoic acid synthesis inhibitors, primary screen (AID 463173)
# condition summary: S. aureus RN4220 wild type/DeltatarO growth, OD600, 18 h, screened at 18.75 µg/mL (by protocol)
The campaign covered roughly 52,000 compounds. About 4,300 (8.3%) were called active. No stated cut-off is given here; in the data, active means survival mostly below about 52% (no sharp cut-off); inactive means mostly above about 56%. The sample holds actives, similar compounds and a random draw of the others, so the mix is not that of the screen.
Could you please pick one outcome from this set? yes for active, no for inactive

Query string: Hello, I am checking results. What call was entered for Cc1ccccc1C(=O)n1nc(-c2cccnc2)nc1NCc1ccc(F)cc1 ?
Result string: no

Query string: Hello, I am checking results. What call was entered for COc1ccc(CNc2nc(-c3ccc(Cl)cc3)nn2C(=O)c2ccccc2)cc1 ?
Result string: yes

Query string: Hello, I am checking results. What call was entered for O=C(c1ccc(F)cc1)n1nc(-c2ccccc2)nc1NCc1ccc(F)cc1 ?
Result string: yes

Query string: Hello, I am checking results. What call was entered for O=C(c1ccc(F)cc1)n1nc(-c2cccnc2)nc1NCc1ccccc1 ?
Result string: no

Query string: Hello, I am checking results. What call was entered for Cc1c(Cl)cccc1NC(=O)CCN1C(=O)c2ccccc2Sc2ncccc21 ?
Result string: no

Query string: Hello, I am checking results. What call was entered for COC(=O)c1ccc(NC(=O)N2CCN(c3nnc(C)c4c(C)n(-c5ccccc5)nc34)CC2)cc1 ?
Result string: no

Query string: Hello, I am checking results. What call was entered for CCOC(=O)c1c(SCC(=O)Nc2nc3ccc(C)cc3s2)nc(=O)[nH]c1C ?
Result string: no

Query string: Hello, I am checking results. What call was entered for Cc1nn(-c2ccccc2)c(-n2cccc2)c1C(=O)NCCCN1CCN(c2ccccc2F)CC1 ?
Result string: no

Query string: Hello, I am checking results. What call was entered for CCOc1ccc2nc(N3CCCC(C(=O)Nc4ccccc4CC)C3)sc2c1 (stereo not given) ?
Result string: no

Query string: Hello, I am checking results. What call was entered for CCOC(=O)c1c(-c2ccc(C)cc2)csc1NC(=O)c1cc(-c2ccc(OC)cc2)on1 ?
Result string: no

Query string: Hello, I am checking results. What call was entered for CCOC(=O)c1c(SCC(=O)Nc2cccc(C)c2C)nc(=O)[nH]c1C ?
Result string: no

Query string: Hello, I am checking results. What call was entered for Cc1ccc(CNC(=O)CCS(=O)(=O)c2ccc3c(c2)CC(C)N3C(=O)C2CC2)cc1 (stereo not given) ?
Result string: no

Query string: Hello, I am checking results. What call was entered for COc1ccccc1C(=O)n1nc(-c2ccccc2)nc1NCc1ccc(Cl)cc1 ?
Result string: no

Query string: Hello, I am checking results. What call was entered for O=C(c1ccccc1)n1nc(-c2ccccc2)nc1NCc1ccc(F)cc1 ?
Result string: yes

Query string: Hello, I am checking results. What call was entered for CCOC(=O)c1c(NC(=O)c2cc(-c3cccc(OC)c3)on2)sc2c1CCCC2 ?
Result string: yes

Query string: Hello, I am checking results. What call was entered for Cc1cccc(Cn2c(CN3CCCC(C)C3)nc3c2c(=O)n(C)c(=O)n3C)c1 (stereo not given) ?
Result string: no

Query string: Hello, I am checking results. What call was entered for COc1ccc(Cn2c(SCc3ccc(C(=O)NC4CCCC4)cc3)nc3cccnc32)cc1 ?
Result string: no

Query string: Hello, I am checking results. What call was entered for O=C(c1ccc(Cl)cc1)n1nc(-c2cccnc2)nc1NCc1ccc(F)cc1 ?
Result string: yes

Query string: Hello, I am checking results. What call was entered for Nc1ncnc2nc(SCC(=O)O)[nH]c12 ?
Result string: no

Query string: Hello, I am checking results. What call was entered for CCOC(=O)c1ccc(NC(=O)c2c(NCc3cccc(OC)c3OC)sc3c2CCC3)cc1 ?
Result string: no

---

# System: DeltatarO mutant
# method: S. aureus survival, RN4220 and DeltatarO strains – OD600, teichoic acid synthesis inhibitors, primary screen (AID 463173)
# condition summary: S. aureus RN4220 wild type/DeltatarO growth, OD600, 18 h, active compounds read low, screened at 18.75 µg/mL (by protocol)
About 4,300 (8.3%) of roughly 52,000 compounds were called active. The list comes from a sample in which actives are over-represented; it also holds close analogues and randomly drawn compounds.
Lab note - cut at 50% for survival: true (1) if strictly below, false (0) if not.

Query string: Please let me know if O=C(O)CCCC(=O)N1CCc2cc(S(=O)(=O)NCc3ccccc3)ccc21 shows survival below 50%.
Result string: false (0)

Query string: Please let me know if O=C(COc1ccccc1Cl)Nc1ccc(-c2nc3ccccc3s2)cc1 shows survival below 50%.
Result string: false (0)

Query string: Please let me know if Cc1ccccc1NC(=O)c1cc2c(-c3ccccc3)nn(-c3ccccc3)c2s1 shows survival below 50%.
Result string: false (0)

Query string: Please let me know if COc1ccc(C(=O)Nc2nc3n(n2)C(c2ccc(F)cc2)C=C(c2ccc(Cl)cc2)N3)cc1 (stereo not drawn) shows survival below 50%.
Result string: false (0)

Query string: Please let me know if O=C(CN1C(=O)CCn2nc(-c3ccccc3)cc21)NCc1ccc(Cl)cc1 shows survival below 50%.
Result string: true (1)

Query string: Please let me know if Cn1cc(-c2cc3n(n2)CCC(=O)N3CCCC(=O)Nc2ccccc2F)c2ccccc21 shows survival below 50%.
Result string: false (0)

Query string: Please let me know if COc1ccccc1NC(=O)c1cc2c(C)nn(-c3ccccc3)c2s1 shows survival below 50%.
Result string: true (1)

Query string: Please let me know if CCN(C(=O)Cc1nc(-c2ccc(OC)cc2)no1)c1cccc(Cl)c1 shows survival below 50%.
Result string: false (0)

---

# Tested on: DeltatarO mutant
# method: S. aureus survival, RN4220 and DeltatarO strains – OD600, teichoic acid synthesis inhibitors, primary screen (AID 463173)
# condition summary: S. aureus RN4220 wild type/DeltatarO growth, OD600, 18 h, active compounds read low, screened at 18.75 µg/mL (by protocol)
The campaign covered roughly 52,000 compounds. About 4,300 (8.3%) were called active. The sample holds actives, similar compounds and a random draw of the others, so the mix is not that of the screen.
Task for the reader: assign each of the following compounds its reported survival.
Quick note: give the figure in %, leave out the unit.

Query string: Return reported survival; argument: O=C(CCCSc1nc(-c2ccco2)cc(C(F)(F)F)n1)NC1CCCCC1
Result string: 86

Query string: Return reported survival; argument: COc1ccc2nc(NC(=O)c3nc(S(=O)(=O)Cc4ccccc4F)ncc3Cl)sc2c1
Result string: 61

Query string: Return reported survival; argument: O=C(CSCn1nnc2c(=O)[nH]c(Cc3ccc(F)cc3)nc21)Nc1ccccc1
Result string: 52

---

# System: DeltatarO mutant
# method: S. aureus survival, RN4220 and DeltatarO strains – OD600, teichoic acid synthesis inhibitors, primary screen (AID 463173)
# condition summary: S. aureus RN4220 wild type/DeltatarO growth, OD600, 18 h, active compounds read low, screened at 18.75 µg/mL (by protocol)
Among all 52,000 compounds or so, about 4,300 (8.3%) were called active. The sample as a whole holds a higher share of actives than the screen did.
measured parameter: survival (%)
Quick note: give the figure in %, leave out the unit.

Query string: Return reported survival; argument: COc1ccccc1CNC(=O)CSc1ncc2c(n1)-c1cc(Cl)ccc1N(Cc1ccccc1)S2(=O)=O
Result string: 80

Query string: Return reported survival; argument: Cc1ccc(NC(=O)c2oc3ccc(S(=O)(=O)N4CCCCC4)cc3c2C)c(C)c1
Result string: 79

Query string: Return reported survival; argument: CCCCNC(=O)CSc1nc2n[nH]c(C)c2c(=N)n1-c1ccccc1CC
Result string: 89

Query string: Return reported survival; argument: CCc1cccc(NC(=O)CSc2ncc3c(n2)-c2ccc(Cl)cc2N(Cc2ccccc2)S3(=O)=O)c1
Result string: 92

Query string: Return reported survival; argument: COC(=O)C1C(=O)C2=C(CC1C)Nc1ccccc1NC2c1cc(F)ccc1F (stereo not drawn)
Result string: 82

Query string: Return reported survival; argument: C=C(C)Cn1c(=O)c2c(nc3n2CCN3c2cc(C)cc(C)c2)n(C)c1=O
Result string: 81

Query string: Return reported survival; argument: COc1ccccc1CNC(=O)CCc1c(C)nn(-c2ccc(N3CCOCC3)nn2)c1C
Result string: 80

Query string: Return reported survival; argument: COCCNC(=O)CSc1nc2cc3c(cc2c(=O)n1CCCCCC(=O)NCc1ccc(OC)cc1)OCO3
Result string: 67

---

# System: DeltatarO mutant
# method: S. aureus survival, RN4220 and DeltatarO strains – OD600, teichoic acid synthesis inhibitors, primary screen (AID 463173)
# condition summary: S. aureus RN4220 wild type/DeltatarO growth, OD600, 18 h, screened at 18.75 µg/mL (by protocol)
About 4,300 (8.3%) of roughly 52,000 compounds were called active. No stated cut-off is given here; in the data, active means survival mostly below about 52% (no sharp cut-off); inactive means mostly above about 56%. For the sample, actives were picked, then their nearest neighbours and some compounds at random.
Could you please pick one outcome from this set? Yes = active, No = inactive

Query string: Hello, I am checking results. What call was entered for c1cn(CCCNc2ncnc3sc4c(c23)CCCCC4)cn1 ?
Result string: No

Query string: Hello, I am checking results. What call was entered for CC(=O)N1CCc2cc(CNS(=O)(=O)c3ccc(Cl)s3)ccc21 ?
Result string: No

Query string: Hello, I am checking results. What call was entered for COc1cccc(CNC(=O)c2cc3c(=O)oc4ccc(C)cc4c3s2)c1 ?
Result string: No

Query string: Hello, I am checking results. What call was entered for S=c1nc(Cc2cccs2)[nH]c2ccccc12 ?
Result string: No

Query string: Hello, I am checking results. What call was entered for CCCOc1cccc(C2c3c(-c4ccccc4O)n[nH]c3C(=O)N2Cc2ccco2)c1 (centres undefined) ?
Result string: Yes

Query string: Hello, I am checking results. What call was entered for Cc1[nH]c2ccccc2c1C(c1ccccc1)c1cccs1 (centres undefined) ?
Result string: Yes

Query string: Hello, I am checking results. What call was entered for C=CCc1c(C)[nH]c2ccccc2c1=O ?
Result string: No

Query string: Hello, I am checking results. What call was entered for c1coc(CNc2ncnc3sc4c(c23)CCCC4)c1 ?
Result string: No

Query string: Hello, I am checking results. What call was entered for COc1ccccc1CNC(=O)C(C)n1c(=O)cc(C(F)(F)F)c2c(C)nn(C)c21 (centres undefined) ?
Result string: No

Query string: Hello, I am checking results. What call was entered for O=C1c2[nH]nc(-c3ccccc3O)c2C(c2ccccc2F)N1Cc1cccnc1 (centres undefined) ?
Result string: No

Query string: Hello, I am checking results. What call was entered for CCCCc1c(C)[nH]c2ccccc2c1=O ?
Result string: No

Query string: Hello, I am checking results. What call was entered for COc1ccccc1NC(=O)Cn1c(=O)n(Cc2ccc3c(c2)OCO3)c(=O)c2oc3ccccc3c21 ?
Result string: No

Query string: Hello, I am checking results. What call was entered for Cc1ccc(C(c2cccc(Br)c2)c2c(C)[nH]c3ccccc23)s1 (centres undefined) ?
Result string: No

Query string: Hello, I am checking results. What call was entered for NNC(=O)CSc1c(-c2cccs2)[nH]c2ccccc12 ?
Result string: No

Query string: Hello, I am checking results. What call was entered for CC(C)OCCCNc1ncnc2sc3c(c12)CCCC3 ?
Result string: Yes

Query string: Hello, I am checking results. What call was entered for Cc1ccc2nc(NC(=O)CSc3cc(C)[nH]c(=O)n3)sc2c1 ?
Result string: No

Query string: Hello, I am checking results. What call was entered for O=C1c2[nH]nc(-c3ccccc3O)c2C(c2cccc(Br)c2)N1Cc1ccncc1 (centres undefined) ?
Result string: No

Query string: Hello, I am checking results. What call was entered for Cc1ccc(CNC(C)c2ccccc2)s1 (centres undefined) ?
Result string: No

Query string: Hello, I am checking results. What call was entered for Cc1ccc(O)c(-c2n[nH]c3c2C(c2ccccc2F)N(Cc2ccco2)C3=O)c1 (centres undefined) ?
Result string: Yes
